Target: T1, EGFI-Cr1 N42E (human, UniProt P16422 24-63)
T1 construct: not shown: the constant region of human immunoglobulin gamma 1 heavy chain (Cr1) fused at the C-terminus
T1 chain: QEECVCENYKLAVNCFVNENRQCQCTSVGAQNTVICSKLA
Assay: direct ELISA, coated EGFI-Cr1 fusion, 0.1 µg/ml antibody
Protocol: A direct ELISA was used for testing the reactivity of anti-EpCAM antibodies toward variant EpCAM mutants. […] The optical densities at 450 nm wavelength were measured on an ELISA plate reader.
Would you mind telling me the reported relative binding activity (% of WT) of each entry?
Numbers only, in %.

Required: relative binding activity (% of WT), one value per binder below.
1. murine monoclonal antibody 12H8 (antibody, mouse IgG2a, V domains shown, Mouse IgG2a, kappa, from hybridoma; also called m342-12H8.3; m12H8) VH: QIQLVQSGPELKKPGETVKISCKTSGYTFTDYSMHWVNQAPGKGLKWMGWINTETGEPTYTDDFKGRFAFSLETSASTAYLQINNLKNEDTATYFCARTAVYWGQGTTLTVSS VL: DIQMTQSPSSLSASLGERVSLTCRASQEISGSLSWLQQKPDGTIKRLIYAASTLNSGVPKRFSGRRSGSDYSLTISSLESEDFVDYYCLQYSSYPWSFGGGTKLEIKR
2. murine monoclonal antibody 2D11 (antibody, mouse IgG1, V domains shown, Mouse IgG1, kappa, from hybridoma; also called m322-2D11.19) VH: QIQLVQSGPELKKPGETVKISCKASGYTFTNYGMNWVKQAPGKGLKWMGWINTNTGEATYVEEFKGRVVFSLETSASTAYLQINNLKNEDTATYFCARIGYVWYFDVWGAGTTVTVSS VL: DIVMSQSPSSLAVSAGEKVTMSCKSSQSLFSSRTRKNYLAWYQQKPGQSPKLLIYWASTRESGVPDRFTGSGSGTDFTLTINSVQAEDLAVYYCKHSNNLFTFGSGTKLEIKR
3. murine monoclonal antibody 1G10 (antibody, mouse IgG1, V domains shown, Mouse IgG1, kappa, from hybridoma; also called m290-1G10) VH: QIQLVQSGPELKKPGETVKISCKASGYTFTNYGMNWVKQAPGKGFKWMGWINTYTGEPTYADDFKGRFAFSLETSASTAYLQINNLQNEDMATYFCARWGYDFDYWGQGTTLTVSS VL: QIVLTQSPAIMSSSPGEKVTMTCSASSSISYMNWYQQKPGTSPKRWIYDTSKLASGVPARFSGSGSGTSYSLTISSMEAEDAATYYCHQRSSYPYTFGGGTKLEIKR

Result:
1. 23
2. 58
3. 93

Quick one: give me relative binding activity (% of WT) for each item below, same order please.
1. murine monoclonal antibody 1F10 (antibody, mouse IgG1, V domains shown, Mouse IgG1, lambda 1, from hybridoma; also called m338-1F10.3) VH: EVKLLESGGGLVQPGGSLKLSCAASGFDFSRYWMSWVRQAPGKGLEWIGEINPDSSTMNYTPSLKDKFIISRDNAKNTLYLQMSKVRSEDTALYYCARGAYAMDYWGQGTSVTVSS VL: QAVVTQESALTTSPGETVTLTCRSSTGAVTTSNNANWVQEKPDHLFTGLIGATNNRAPGVPARFSGSLIGDKAALTITGAQTEDEAIYFCALWYINHWVFGGGTKLTVLG
2. murine monoclonal antibody 6D11 (antibody, mouse IgG1, V domains shown, Mouse IgG1, kappa, from hybridoma; also called m338-6D11.8) VH: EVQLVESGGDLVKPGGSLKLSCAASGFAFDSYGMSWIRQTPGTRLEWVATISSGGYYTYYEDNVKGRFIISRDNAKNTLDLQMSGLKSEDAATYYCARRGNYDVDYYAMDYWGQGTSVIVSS VL: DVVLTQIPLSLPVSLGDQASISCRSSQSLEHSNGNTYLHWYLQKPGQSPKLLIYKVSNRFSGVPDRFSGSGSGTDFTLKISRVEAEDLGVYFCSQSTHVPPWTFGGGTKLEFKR
3. murine monoclonal antibody 4D2 (antibody, mouse IgG1, V domains shown, Mouse IgG1, kappa, from hybridoma; also called m338-4D2.20) VH: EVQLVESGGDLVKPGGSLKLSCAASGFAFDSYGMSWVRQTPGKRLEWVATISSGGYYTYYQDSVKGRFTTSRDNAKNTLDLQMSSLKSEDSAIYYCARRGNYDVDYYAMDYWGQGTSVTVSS VL: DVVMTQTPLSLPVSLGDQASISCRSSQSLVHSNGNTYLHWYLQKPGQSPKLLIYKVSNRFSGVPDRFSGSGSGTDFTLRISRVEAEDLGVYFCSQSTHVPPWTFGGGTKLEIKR

Result:
95
83
82
